target: Sigma non-opioid intracellular receptor 1 (Homo sapiens, UniProt Q99720); test: Inhibition of sigma receptor 1 (unknown origin)
Sequence (Q99720 whole entry): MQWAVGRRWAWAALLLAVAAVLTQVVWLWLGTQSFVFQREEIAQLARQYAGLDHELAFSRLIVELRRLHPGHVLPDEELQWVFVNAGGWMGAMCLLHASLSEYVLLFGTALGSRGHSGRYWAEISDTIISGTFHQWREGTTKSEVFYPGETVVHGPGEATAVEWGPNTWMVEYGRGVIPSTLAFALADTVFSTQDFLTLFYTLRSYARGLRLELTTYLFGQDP
quantity.kind: Ki (nM)
One number for each entry, in nM.

# count of solved cases: 2
{"chem.smiles": "Nc1nc(Cl)nc2c1ncn2[C@H]1[C@H](O)[C@H](O)[C@]2(CCl)C[C@H]12", "tested.system": "Sigma non-opioid intracellular receptor 1 (Homo sapiens, UniProt Q99720)", "unit": "nM", "Ki": 1970}
{"chem.smiles": "O[C@@H]1[C@H](O)[C@@H]2C[C@@H]2[C@H]1n1cnc2c(NC(C3CCCC3)C3CCCC3)nc(Cl)nc21", "tested.system": "Sigma non-opioid intracellular receptor 1 (Homo sapiens, UniProt Q99720)", "unit": "nM", "Ki": 5090}

Query compound follows.
QUERY: Specify measured Ki for O[C@@H]1[C@H](O)[C@@H](CCl)O[C@H]1n1cnc2c(N[C@H]3C[C@H]4CC[C@@H]3C4)ncnc21 .
RESULT: 484

---

assay: Fraction unbound in rat plasma at 10 uM; format: ADME, cell-free
quantity.kind: Fu (%)
One number for each entry, in %.

{"chem.smiles": "OC[C@@]12C[C@@H]1[C@@H](n1cnc3c(NC(C4CCC4)C4CCC4)ncnc31)[C@H](O)[C@@H]2O", "Fu [%]": 17.8}
{"chem.smiles": "O[C@H]1[C@H](n2cnc3c(N[C@H]4C[C@H]5CC[C@@H]4C5)nc(Cl)nc32)[C@H]2C[C@@]2(CCl)[C@H]1O", "Fu [%]": 2.53}
{"chem.smiles": "OC[C@H]1O[C@@H](n2cnc3c(NC(C4CCC4)C4CCC4)nc(Cl)nc32)[C@H](O)[C@@H]1O", "Fu [%]": 4.64}
{"chem.smiles": "OC[C@@]12C[C@@H]1[C@@H](n1cnc3c(N[C@H]4C[C@H]5CC[C@@H]4C5)nc(Cl)nc31)[C@H](O)[C@@H]2O", "Fu [%]": 6.59}

QUERY: Specify measured Fu for OC[C@H]1O[C@@H](n2cnc3c(NC(C4CCC4)C4CCC4)ncnc32)[C@H](O)[C@@H]1O .
RESULT: 14.6

---

biological target: UniProt P0DMS8; assay: Displacement of [125I]N6-(4-amino-3-iodobenzyl)adenosine-5-N-methyluronamide from human A3A adenosine receptor expressed in CHO cell membranes at 10 uM after 60 mins by scintillation proximity assay relative to adenosine 5-N-ethyluronamide
Sequence (P0DMS8 whole entry): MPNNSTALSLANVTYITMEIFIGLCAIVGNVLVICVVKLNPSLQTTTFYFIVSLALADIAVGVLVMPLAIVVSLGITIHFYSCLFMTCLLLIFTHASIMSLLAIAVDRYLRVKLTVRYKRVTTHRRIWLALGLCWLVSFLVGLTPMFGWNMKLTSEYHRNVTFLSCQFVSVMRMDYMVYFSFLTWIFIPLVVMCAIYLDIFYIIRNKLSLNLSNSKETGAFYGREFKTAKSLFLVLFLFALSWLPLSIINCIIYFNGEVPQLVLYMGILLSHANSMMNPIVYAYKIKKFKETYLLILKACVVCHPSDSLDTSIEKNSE
Give inhibition for every item shown.
One number for each entry, in %.

{"molecule": "OC[C@@]12C[C@@H]1[C@@H](n1cnc3c(NC(C4CCC4)C4CCC4)nc(Cl)nc31)[C@H](O)[C@@H]2O", "quantity.kind": "inhibition", "measured": 25}
{"molecule": "O[C@H]1[C@H](n2cnc3c(NC(C4CCC4)C4CCC4)ncnc32)[C@H]2C[C@@]2(CCl)[C@H]1O", "quantity.kind": "inhibition", "measured": 49}
{"molecule": "OC[C@@]12C[C@@H]1[C@@H](n1cnc3c(NC(C4CCC4)C4CCC4)ncnc31)[C@H](O)[C@@H]2O", "quantity.kind": "inhibition", "measured": 51}
{"molecule": "COC(=O)c1ncn([C@H]2[C@H](O)[C@H](O)[C@]3(CO)C[C@H]23)n1", "quantity.kind": "inhibition", "measured": 22}
{"molecule": "Nc1ncnc2c1ncn2[C@@H]1O[C@H](C(=O)O)[C@@H](O)[C@H]1O [5'-CARBOXY ADENOSINE]", "quantity.kind": "inhibition", "measured": 32}
{"molecule": "NC(=O)c1ncn([C@@H]2O[C@H](CO)[C@@H](O)[C@H]2O)n1", "quantity.kind": "inhibition", "measured": 16}
{"molecule": "NC(=O)c1ncn([C@H]2[C@H](O)[C@H](O)[C@]3(CO)C[C@H]23)n1", "quantity.kind": "inhibition", "measured": 41}

Query molecule follows.
QUERY: Specify measured inhibition for CCOC(=O)[C@@]12C[C@@H]1[C@@H](n1cnc3c(NC(C4CC4)C4CC4)nc(Cl)nc31)[C@@H]1OC(C)(C)O[C@@H]12 .
RESULT: 41

---

Give Ki for every item shown.
biological target: Sigma intracellular receptor 2 (Homo sapiens); experiment: Inhibition of sigma receptor 2 (unknown origin)
Sequence (Q5BJF2 whole entry): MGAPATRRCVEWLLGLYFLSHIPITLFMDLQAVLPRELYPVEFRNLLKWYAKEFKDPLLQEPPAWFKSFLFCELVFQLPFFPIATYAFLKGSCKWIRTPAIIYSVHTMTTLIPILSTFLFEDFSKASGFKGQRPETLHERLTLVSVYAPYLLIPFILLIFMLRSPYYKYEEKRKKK
Answer format reminder: number followed by unit.

# count of solved cases: 7
{"chem.smiles": "O[C@@H]1[C@H](O)[C@@H](CCl)O[C@H]1n1cnc2c(NC(C3CCC3)C3CCC3)ncnc21", "measured": "662 nM"}
{"chem.smiles": "O[C@@H]1[C@H](O)[C@@H]2C[C@@H]2[C@H]1n1cnc2c(NC(C3CCCC3)C3CCCC3)nc(Cl)nc21", "measured": "2010 nM"}
{"chem.smiles": "Nc1nc(Cl)nc2c1ncn2[C@H]1[C@H](O)[C@H](O)[C@]2(CCl)C[C@H]12", "measured": "2550 nM"}
{"chem.smiles": "O[C@H]1[C@H](n2cnc3c(NC(C4CCC4)C4CCC4)ncnc32)[C@H]2C[C@@]2(CCl)[C@H]1O", "measured": "1170 nM"}
{"chem.smiles": "O[C@H]1[C@H](n2cnc3c(NC(C4CCC4)C4CCC4)nc(Cl)nc32)[C@H]2C[C@@]2(CCl)[C@H]1O", "measured": "349 nM"}
{"chem.smiles": "NC(=O)c1ncn([C@H]2[C@H](O)[C@H](O)[C@]3(CO)C[C@H]23)n1", "measured": "2090 nM"}
{"chem.smiles": "CCOC(=O)[C@@]12C[C@@H]1[C@@H](n1cnc3c(NC(C4CCC4)C4CCC4)nc(Cl)nc31)[C@H](O)[C@@H]2O", "measured": "2020 nM"}

QUERY: Specify measured Ki for O[C@H]1[C@H](n2cnc3c(NC(C4CCC4)C4CCC4)nc(Cl)nc32)[C@H]2C[C@@]2(CSc2ccccc2F)[C@H]1O .
RESULT: 583 nM

---

test system: Mus musculus; test: Induction of hypothermia in C57BL/6J mouse assessed as body temperature at 3 mg/kg, ip measured at 60 mins post dose (reference value: 36.3 +/- 0.8 degC); format: functional
Give T for every item shown.

{"molecule": "O[C@@H]1[C@H](O)[C@@H]2C[C@@H]2[C@H]1n1cnc2c(NC(C3CC3)C3CC3)nc(Cl)nc21", "T": "33.4 °C"}
{"molecule": "O[C@@H]1[C@H](O)[C@@H](CCl)O[C@H]1n1cnc2c(NC3C[C@H]4CC[C@@H]3C4)ncnc21 (mixture of isomers)", "T": "32.2 °C"}
{"molecule": "OC[C@@]12C[C@@H]1[C@@H](n1cnc3c(N[C@H]4C[C@H]5CC[C@@H]4C5)nc(Cl)nc31)[C@H](O)[C@@H]2O", "T": "33.4 °C"}
{"molecule": "OC[C@@]12C[C@@H]1[C@@H](n1cnc3c(NC(C4CCC4)C4CCC4)ncnc31)[C@H](O)[C@@H]2O", "T": "36.2 °C"}
{"molecule": "OC[C@H]1O[C@@H](n2cnc3c(NC(C4CCC4)C4CCC4)ncnc32)[C@H](O)[C@@H]1O", "T": "33 °C"}

Could you report T for every entry in the following list?
1. O[C@H]1[C@H](n2cnc3c(NC(C4CCC4)C4CCC4)ncnc32)[C@H]2C[C@@]2(CCl)[C@H]1O
2. OC[C@H]1O[C@@H](n2cnc3c(NC(C4CCC4)C4CCC4)nc(Cl)nc32)[C@H](O)[C@@H]1O
3. O[C@H]1[C@H](n2cnc3c(N[C@H]4C[C@H]5CC[C@@H]4C5)nc(Cl)nc32)[C@H]2C[C@@]2(CCl)[C@H]1O

RESULT:
1. 35.9 °C
2. 35.5 °C
3. 36.6 °C

---

target: Voltage-gated inwardly rectifying potassium channel KCNH2 (Homo sapiens)
Sequence (Q12809 whole entry): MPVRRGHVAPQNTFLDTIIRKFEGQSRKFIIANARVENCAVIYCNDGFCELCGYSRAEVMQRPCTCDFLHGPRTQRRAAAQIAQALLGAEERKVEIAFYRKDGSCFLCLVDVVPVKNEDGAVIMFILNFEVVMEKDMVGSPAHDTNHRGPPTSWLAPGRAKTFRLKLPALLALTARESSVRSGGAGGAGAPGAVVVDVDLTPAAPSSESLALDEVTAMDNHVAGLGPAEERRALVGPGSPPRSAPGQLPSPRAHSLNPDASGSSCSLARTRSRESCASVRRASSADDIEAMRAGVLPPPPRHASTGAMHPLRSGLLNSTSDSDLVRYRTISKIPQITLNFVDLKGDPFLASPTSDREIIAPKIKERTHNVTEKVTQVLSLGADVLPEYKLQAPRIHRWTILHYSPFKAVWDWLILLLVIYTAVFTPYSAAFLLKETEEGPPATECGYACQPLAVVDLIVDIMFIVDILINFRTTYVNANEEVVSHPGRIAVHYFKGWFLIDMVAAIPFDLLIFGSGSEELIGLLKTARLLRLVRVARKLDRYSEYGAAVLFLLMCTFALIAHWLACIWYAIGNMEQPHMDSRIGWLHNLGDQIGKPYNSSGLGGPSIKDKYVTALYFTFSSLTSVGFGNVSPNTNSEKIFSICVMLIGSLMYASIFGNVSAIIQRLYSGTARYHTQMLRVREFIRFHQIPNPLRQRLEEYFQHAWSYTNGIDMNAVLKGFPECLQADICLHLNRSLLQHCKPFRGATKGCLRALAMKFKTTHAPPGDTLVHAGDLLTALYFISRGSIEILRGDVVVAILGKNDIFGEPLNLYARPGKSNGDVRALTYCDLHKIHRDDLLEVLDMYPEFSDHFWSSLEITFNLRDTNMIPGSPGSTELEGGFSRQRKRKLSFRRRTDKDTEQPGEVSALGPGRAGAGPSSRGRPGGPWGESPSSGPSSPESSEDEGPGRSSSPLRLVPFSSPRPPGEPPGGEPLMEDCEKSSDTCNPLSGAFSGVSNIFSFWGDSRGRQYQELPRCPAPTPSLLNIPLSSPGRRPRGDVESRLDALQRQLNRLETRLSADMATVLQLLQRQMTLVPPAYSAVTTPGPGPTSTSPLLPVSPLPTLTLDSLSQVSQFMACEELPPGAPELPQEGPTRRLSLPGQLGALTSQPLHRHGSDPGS
quantity.kind: IC50

QUERY: # lookup: Voltage-gated inwardly rectifying potassium channel KCNH2 (Homo sapiens) IC50, key = OC[C@H]1O[C@@H](n2cnc3c(NC(C4CCC4)C4CCC4)ncnc32)[C@H](O)[C@@H]1O
RESULT: > 30 µM

---

test system: Mus musculus; experiment: Induction of hypothermia in C57BL/6J mouse assessed as activity counts at 3 mg/kg, ip measured at 60 mins post dose (reference value: 15.5 +/- 5.5); format: functional
Give Activity for every item shown.
One number for each entry.

# count of solved cases: 3
{"molecule": "O[C@H]1[C@H](n2cnc3c(NC(C4CCC4)C4CCC4)ncnc32)[C@H]2C[C@@]2(CCl)[C@H]1O", "Activity": 14.8}
{"molecule": "OC[C@@]12C[C@@H]1[C@@H](n1cnc3c(N[C@H]4C[C@H]5CC[C@@H]4C5)nc(Cl)nc31)[C@H](O)[C@@H]2O", "Activity": 10}
{"molecule": "O[C@H]1[C@H](n2cnc3c(N[C@H]4C[C@H]5CC[C@@H]4C5)nc(Cl)nc32)[C@H]2C[C@@]2(CCl)[C@H]1O", "Activity": 16.8}

QUERY: Specify measured Activity for O[C@@H]1[C@H](O)[C@@H](CCl)O[C@H]1n1cnc2c(NC3C[C@H]4CC[C@@H]3C4)ncnc21 (mixture of isomers) .
RESULT: 2.8
